Target: human PD-1 (wild-type), expressed on cells (human, UniProt Q15116 25-288)
Sequence (Q15116 25-288 limits assumed): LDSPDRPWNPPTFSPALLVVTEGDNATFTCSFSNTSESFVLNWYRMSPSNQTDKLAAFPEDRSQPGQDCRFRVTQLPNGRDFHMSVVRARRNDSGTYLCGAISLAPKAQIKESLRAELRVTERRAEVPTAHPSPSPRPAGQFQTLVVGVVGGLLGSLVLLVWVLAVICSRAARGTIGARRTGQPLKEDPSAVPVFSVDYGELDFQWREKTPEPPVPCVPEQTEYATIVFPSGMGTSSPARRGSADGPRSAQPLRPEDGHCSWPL
Assay: cell-based or functional assay
Please respond with reported Cell-cell contact assay for every item in the list.
Answers are plain numbers, in ng/mL.

# example entries with known answers
BINDER: HM242-B2 (antibody, human IgG1, V domains shown, also called humanized HM242, VH ver.B / VL ver.2) VH: QVQLVQSGPEVKKPGASVKVVCKASGYTFTSYYIQWVRQVPGQGLEWMGWIYPGDGTTKYNEKFKGKTTLTIDKSTRTAYMELRSLRSDDTAVYYCASYYGSYFDYWGQGTLVTVSS VL: DIQMTQSPSSLSASVGDRVTITCRASQDISNYLNWYQQKPDGTVTLLIYYTSKLHSGVPSRFSGSGSGTDYTLTISSLQPEDFATYYCQQSSTLPFTFGQGTKLEIK
MEASUREMENT UNITS: ng/mL
RESULT NUMBER: 8.83

BINDER: HM242-A2 (antibody, human IgG1, V domains shown, also called humanized HM242, VH ver.A / VL ver.2) VH: QVQLVQSGPELVKPGASVKVVCKASGYTFTSYYIQWVKQRPGQGLEWIGWIYPGDGTTKYNEKFKGKTTLTIDKSTRTAYMELRSLRSDDTAVYYCASYYGSYFDYWGQGTLVTVSS VL: DIQMTQSPSSLSASVGDRVTITCRASQDISNYLNWYQQKPDGTVTLLIYYTSKLHSGVPSRFSGSGSGTDYTLTISSLQPEDFATYYCQQSSTLPFTFGQGTKLEIK
MEASUREMENT UNITS: ng/mL
RESULT NUMBER: 16.7

Challenge: Supply reported Cell-cell contact assay belonging to this binder: humanized HM242-C3-IgG1-K322A (antibody, V domains shown) VH: QVQLVQSGPEVKKPGASVKVVCKASGYTFTSYYIQWVKQRPGQGLEWIGWIYPGDGTTKYNEKFKGRVTMTIDKSTRTAYMELRSLRSDDTAVYYCASYYGSYFDYWGQGTLVTVSS VL: DIQMTQSPSSLSASVGDRVTITCRASQDISNYLNWYQQKPGKAPKLLIYYTSKLHSGVPSRFSGSGSGTDYTLTISSLQPEDFATYYCQQSSTLPFTFGQGTKLEIKR
Response given: 23.7

Where do these numbers come from? They come from patent US20240317859A1.
